Origin of values: PubChem BioAssay

procedure_details: adipocyte viability effects, profiling panel, cell-based, 3T3-L1 adipocytes, calcein-AM fluorescence, 48 h, basal (AID 1163); also: test concentration not given here
condition: 3T3-L1 adipocytes viability, higher = more signal
Below, each entry is listed alongside its reported z-score.

compound: CN(C)CCCNC(=O)[C@@]1(Cc2ccccc2I)c2ccccc2C(=O)N(Cc2ccccc2C(F)(F)F)[C@H]1c1ccc(CO)cc1
z-score: -0.469

compound: O=C1C=CC(=O)[C@@H]2CC(COc3ccccc3)=C3[C@@H](CCc4ccccc4)OB(O)C[C@@H]3[C@H]12
z-score: -1.23

compound: C=CCC(OC(C)=O)[C@@H]1[C@@H](N(Cc2ccc(-c3cccc(C(F)(F)F)c3)o2)C(=O)c2ccc(C)cc2)c2cc(OCCCO)ccc2N1C(=O)c1ccc(-c2ccccc2)cc1 (some centres undefined)
z-score: 0.345

compound: Cc1ccc(S[C@]2(C(=O)NC3CC3)CC(=O)N(C3CCCCC3)[C@@H]2c2ccc(CO)cc2I)cc1
z-score: -0.07

compound: CCOC(=O)C[C@H]1[C@H](OC(=O)c2ccccc2-c2ccccc2)[C@@H](NC(=O)c2ccc3ccccc3c2)c2cc(OCCCO)ccc2N1C(=O)c1ccc2ccccc2n1
z-score: 0.487

compound: COc1ccc([Si](C)(C)[C@@H]2[C@@H](CCn3cc([C@H](O)c4ccccc4)nn3)O[C@]3(C(=O)N(Cc4cccc(N5CCOC5=O)c4)c4ccccc43)[C@H]2C)cc1
z-score: -0.392

compound: [N-]=[N+]=NCc1ccccc1[C@@H]1OC(c2ccc(OCCCO)cc2)=N[C@]1(Cc1ccccc1N=[N+]=[N-])C(=O)NCc1ccccc1
z-score: 0.0085

compound: C=C[C@@H](COC(C)=O)N(Cc1ccc([N+](=O)[O-])cc1)S(=O)(=O)c1ccc(Br)cc1
z-score: -0.306

compound: CC(C)C(=C=CC[C@H](O)c1ccccc1OCCO)C[C@H](O)c1ccccn1
z-score: -0.27

compound: CC(c1ccccc1)C(O)C1C=CC2C(=O)NC(=O)C2N1Nc1ccccn1 (centres undefined)
z-score: -0.309

compound: NC(=O)NCC#Cc1ccc2c(c1)[C@]1(C(=O)N2)[C@H](C(=O)NC[C@H](O)c2ccccc2)[C@H]2C(=O)O[C@H](c3ccccc3)[C@H](c3ccccc3)N2[C@@H]1c1ccc(O)cc1
z-score: -1.13

compound: O=c1cccc(CCc2ccccc2)o1
z-score: -0.519

compound: COc1ccc(C#Cc2ccc3c(c2)[C@]2(C(=O)N3)[C@H](C(=O)NC[C@H](O)c3ccccc3)[C@H]3C(=O)O[C@H](c4ccccc4)[C@H](c4ccccc4)N3[C@@H]2c2ccc(OCCO)cc2)cc1
z-score: 1.17

compound: C=C(COC)C(=O)CC[C@@H](OC(=O)c1cccnc1)c1ccc(CO)o1
z-score: -0.615

----------
procedure_details: A549 lung cancer cell viability effects, profiling panel, resazurin fluorescence, 24 h, PK04 Diversity Set (AID 1171); also: test concentration not given here
condition: higher = more signal, called active from +8 up or from −8 down

compound: Cc1ccccc1C(O)C1C=CC2C(=O)N(C)C(=O)C2N1N1CCCCC1 (centres undefined)
z-score: -0.464
//
compound: CC=CC(O)C1C=CC2C(=O)N(c3ccccc3)C(=O)C2N1Nc1ccc(C(C)C)cc1 (centres undefined)
z-score: -1.65
//
compound: CC(C)CNC(=O)[C@@H]1c2ccccc2C(=O)N(Cc2cc(C(F)(F)F)cc(C(F)(F)F)c2)[C@H]1c1ccc(CO)cc1
z-score: -0.0372
//
compound: O=C1O[C@@H](c2ccccc2)[C@@H](c2ccccc2)N2[C@@H](c3ccccc3OCCO)[C@]3(C(=O)Nc4ccc(C#CC5(O)CCCCCC5)cc43)[C@@H](C(=O)Nc3nc4ccccc4s3)[C@H]12
z-score: -1.34
//
compound: O=C1C[C@]2(c3ccc([N+](=O)[O-])cc3)C(=O)N(CC(F)(F)F)c3cc(CO)ccc3[C@H]2N1CC12CC3CC(CC(C3)C1)C2
z-score: -0.399
//
compound: CCCCC=C[C@@H](NC(=O)c1ccc(C(=O)OC)cc1)c1ccccc1
z-score: 3.37
//
compound: CCOC(=O)[C@H]1C/C=C/C[C@H](C(=O)OCC)C(=O)O[C@H]2[C@@H](OC)O[C@H](CO)[C@@H](OC(=O)Nc3ccc4c(c3)OCO4)[C@@H]2OC1=O
z-score: -5
//
compound: COC(=O)[C@@]1(Cc2ccc(F)cc2)[C@H]2c3cc(C(=O)N4CCCC4)n(Cc4cccc5ccccc45)c3C[C@H]2CN1C(=O)c1ccccc1
z-score: 0.785
//
compound: C=CCC(OC(C)=O)[C@@H]1[C@@H](N(Cc2cc3ccccc3o2)C(=O)c2ccc(C)cc2)c2cc(OCCCO)ccc2N1C(=O)c1ccc2ccccc2c1 (some centres undefined)
z-score: 1.43
//
compound: CCOC(=O)C[C@H]1[C@H](OC(=O)c2ccccc2-c2ccccc2)[C@@H](NC(=O)c2ccc3ccccc3c2)c2cc(OCCCO)ccc2N1C(=O)c1ccc2ccccc2n1
z-score: 0.735
//
compound: C[N+](C)(C)CCCCCCNC(=O)[C@H]1C[C@H]2C(=O)N3CCC[C@H]3C(=O)N2[C@H]1c1ccc(O)cc1
z-score: 0.194
//
compound: COc1ccc(CCNC(=O)[C@@]2(Sc3ccc(C)cc3)CC(=O)N(Cc3ccccc3Cl)[C@@H]2c2ccc(CO)cc2I)cc1
z-score: -0.478
//
compound: C=CCC(OC(C)=O)[C@@H]1[C@@H](N(Cc2ccc(-c3cccc(C(F)(F)F)c3)o2)C(=O)c2ccc(C)cc2)c2cc(OCCCO)ccc2N1C(=O)c1ccc(-c2ccccc2)cc1 (some centres undefined)
z-score: -0.0211
//
compound: CCOC(=O)C1=CCC(C(C)(C)C)N(S(=O)(=O)c2ccc(C)cc2)C1 (centres undefined)
z-score: 0.613

----------
measured_on: Fibroblast growth factor 10 (Homo sapiens)
procedure_details: FGF10 binders on small-molecule microarrays, primary screen, biochemical, small-molecule microarray, 635 nm fluorescence (AID 1102)
condition: FGF10 binding, fluorescence 635 nm, higher = more signal
Listed below: composite z-score values for each entry.

compound: CC(C)C[C@@H]1NC(=O)[C@H]2C[C@@H](C(=O)NCCCCCNC(=O)CS)[C@@H](c3cccc(OCCO)c3)N2C1=O
composite z-score: 1.03
//
compound: COCC(=C=CC[C@@H](O)c1ccc(CO)o1)CCO
composite z-score: 1.26
//
compound: CN(C)CCCNC(=O)[C@@]1(Cc2ccccc2I)c2ccccc2C(=O)N(Cc2ccccc2C(F)(F)F)[C@H]1c1ccc(CO)cc1
composite z-score: -0.75
//
compound: COCCOC(=O)N1C(=O)[C@@]2(c3cc(C#CCC(C(=O)OC)C(=O)OC)ccc31)[C@H](C(=O)N1CCN(c3ncccn3)CC1)[C@H]1C(=O)O[C@H](c3ccccc3)[C@H](c3ccccc3)N1[C@@H]2c1ccc(OCCO)cc1
composite z-score: 0.699
//
compound: Cc1ccc([C@H]2C(C(=O)O)=C[C@@H](C)N2S(=O)(=O)c2ccc(C)cc2)cc1
composite z-score: -0.564
//
compound: CC(C)(C)N1CC=CC23O[C@@H]4/C=C\CCCOC(=O)C4[C@H]2C(=O)N(CCO)[C@@H]3C1=O (stereo partly specified)
composite z-score: -0.142
//
compound: [N-]=[N+]=Nc1ccccc1[C@@H]1OC(c2ccc(OCCCO)cc2)=N[C@]1(CCS(=O)(=O)c1ccccc1)C(=O)N1CCOCC1
composite z-score: 1.37
//
compound: COc1ccc([Si](C)(C)[C@@H]2[C@@H](CCn3cc([C@H](O)c4ccccc4)nn3)O[C@]3(C(=O)N(Cc4ccc(N5C(=O)c6cccc7cccc5c67)cc4)c4ccccc43)[C@H]2C)cc1
composite z-score: -0.456
//
compound: COc1c(C)cc(-c2cc3c(c(-c4ccc(Oc5ccccc5)cc4)n2)[Si](C(C)C)(C(C)C)OC3)cc1C
composite z-score: 0.0668
//
compound: COCCOC(=O)N1C(=O)[C@@]2(c3cc(C#CCNC(N)=O)ccc31)[C@H](c1ccc(OCCO)cc1)N1[C@H](c3ccccc3)[C@H](c3ccccc3)OC(=O)[C@H]1[C@@H]2C(=O)N1CCc2cc(OC)c(OC)cc2C1
composite z-score: 0.921
//
compound: COCCOC(=O)N1C(=O)[C@@]2(c3cc(C#CCNC(N)=O)ccc31)[C@H](c1ccc(O)cc1)N1[C@H](c3ccccc3)[C@H](c3ccccc3)OC(=O)[C@H]1[C@@H]2C(=O)NC[C@H](O)c1ccccc1
composite z-score: 1.05
//
compound: CO[C@H]1O[C@H](CO)[C@@H](OC(=O)Nc2ccc(Oc3ccccc3)cc2)[C@H](OC(=O)Nc2ccccc2)[C@H]1OC(=O)Nc1ccccc1
composite z-score: 1.35
//
compound: C=CCNC(=O)[C@@H]1[C@H]2C(=O)O[C@H](c3ccccc3)[C@H](c3ccccc3)N2[C@H](c2ccc(OCCO)cc2)[C@@]12C(=O)Nc1ccccc12
composite z-score: 0.772
//
compound: [N-]=[N+]=NCc1ccccc1[C@@H]1OC(c2ccc(OCCCO)cc2)=N[C@]1(Cc1ccccc1)C(=O)N1CCCCC1
composite z-score: 1.32
//
compound: CCOC(=O)C[C@H]1[C@H](OC(=O)c2ccc(-c3ccccc3)cc2)[C@@H](NC(=O)c2ccc(-c3ccccc3)cc2)c2cc(OCCCO)ccc2N1C(=O)Cc1ccc(OC)cc1
composite z-score: 0.256
//
compound: COC(=O)[C@@]1(Cc2ccc(F)cc2)[C@H]2c3cc(C(=O)N4CCCC4)n(Cc4cccc5ccccc45)c3C[C@H]2CN1C(=O)c1ccccc1
composite z-score: 0.427
//
compound: O=C(CS)NCCCCCCNC(=O)[C@H]1C[C@H]2C(=O)NCC(=O)N2[C@H]1c1ccc(O)cc1
composite z-score: -0.175
//
compound: O=C1O[C@H](c2ccccc2)[C@H](c2ccccc2)N2[C@H]1[C@@H](C(=O)NC[C@H](O)c1ccccc1)[C@]1(C(=O)Nc3ccc(C#CCCO)cc31)[C@H]2c1ccc(O)cc1
composite z-score: -0.716
//
compound: C=CCC(OC(C)=O)[C@@H]1[C@@H](N(Cc2ccc(-c3cccc(C(F)(F)F)c3)o2)C(=O)c2ccc(C)cc2)c2cc(OCCCO)ccc2N1C(=O)c1ccc(-c2ccccc2)cc1 (stereo partly specified)
composite z-score: 0.0825
//
compound: CCCCC(CC)C(O)C1C=CC2C(=O)N(c3ccccc3)C(=O)C2N1Nc1ccccc1 (stereo unspecified)
composite z-score: 0.753
//
compound: CCOC(=O)C[C@H]1[C@H](OC(=O)Cc2ccc3c(c2)OCO3)[C@@H](NC(=O)C2CCCCC2)c2cc(OCCCO)ccc2N1C(=O)Cc1ccc(OC)cc1
composite z-score: 0.919
//
compound: C=C(CCCC)C(=O)CC[C@H](OC(=O)c1cccnc1)c1cccc(OCCO)c1
composite z-score: 0.309
//
compound: CN(C)CCCCNC(=O)[C@H]1C[C@H]2C(=O)N[C@@H](Cc3ccccc3)C(=O)N2[C@H]1c1ccc(O)cc1
composite z-score: 1.4
//
compound: CCCCCCCCCCC(O)C1C=CC2C(=O)N(Cc3ccccc3)C(=O)C2N1n1cnnc1 (stereo unspecified)
composite z-score: -0.262
//
compound: CC(C)(C)OC(=O)CC[C@@]1(C(=O)NCCN2CCOCC2)N=C(c2ccc(OCCCO)cc2)O[C@@H]1c1ccccc1
composite z-score: 1.01
//
compound: O=C1O[C@H](c2ccccc2)[C@H](c2ccccc2)N2[C@H]1[C@@H](C(=O)N1CCN(c3ncccn3)CC1)[C@]1(C(=O)Nc3ccccc31)[C@H]2c1ccc(OCCO)cc1
composite z-score: 1.29
